# Tested on: CT26 tumor cells
# assay-remarks: CT26 immunotherapy model (Example 15)
# Assay type: in vivo, mice
# particulars: 10 in each group
Listed next: entries and their corresponding Cure rate %.
recorded-endpoint: Cure rate %

CC(NC(=O)C(NC(=O)[C@H](O)[C@H](O)[C@@H](O[C@@H]1O[C@H](CO)[C@H](O)[C@H](O)[C@H]1O)[C@H](O)CO)C(C)O)C(=O)NC(CC(N)=O)C(=O)Nc1ccc(COC(=O)N(C)CCNC(=O)c2cc(Oc3ccc(NC(=O)Nc4ccc(Cl)c(C(F)(F)F)c4)cc3)ccn2)cc1 (stereo partly shown)    80%
CC(NC(=O)C(NC(=O)[C@H](O)[C@H](O)[C@@H](O[C@@H]1O[C@H](CO)[C@H](O)[C@H](O)[C@H]1O)[C@H](O)CO)C(C)C)C(=O)NC(CC(N)=O)C(=O)Nc1ccc(COC(=O)N(C)CCNC(=O)c2cc(Oc3ccc(NC(=O)Nc4ccc(Cl)c(C(F)(F)F)c4)c(F)c3)ccn2)cc1 (stereo partly shown)    70%
C[C@H](N=C[C@H](O)[C@@H](O)[C@H](O)[C@H](O)CO)C(=O)N[C@@H](C)C(=O)N[C@@H](CC(N)=O)C(=O)Nc1ccc(COC(=O)N(C)CCNC(=O)c2cc(Oc3ccc(NC(=O)Nc4ccc(Cl)c(C(F)(F)F)c4)cc3)ccn2)cc1 [Compound C4, Glucose-AAN-PABC-Compound a, reference compound]    0%
COc1cccc2c1C(=O)c1c(O)c3c(c(O)c1C2=O)C[C@](O)(C(=O)CO)CC3OC1C[C@H](NC(=O)OCc2ccc(NC(=O)C(CC(N)=O)NC(=O)C(C)NC(=O)C(C)NC(=O)[C@H](O)[C@H](O)[C@@H](O[C@@H]3O[C@H](CO)[C@H](O)[C@H](O)[C@H]3O)[C@H](O)CO)cc2)[C@H](O)[C@H](C)O1 (stereo partly shown)    80%
CC(NC(=O)C(C)NC(=O)[C@H](O)[C@H](O)[C@@H](O[C@@H]1O[C@H](CO)[C@H](O)[C@H](O)[C@H]1O)[C@H](O)CO)C(=O)NC(CC(N)=O)C(=O)Nc1ccc(COC(=O)N(C)CCNC(=O)c2cc(Oc3ccc(NC(=O)Nc4ccc(Cl)c(C(F)(F)F)c4)cc3)ccn2)cc1 (stereo partly shown)    40%
CC(NC(=O)C(NC(=O)[C@H](O)[C@H](O)[C@@H](O[C@@H]1O[C@H](CO)[C@H](O)[C@H](O)[C@H]1O)[C@H](O)CO)C(C)O)C(=O)NC(CC(N)=O)C(=O)Nc1ccc(COC(=O)N(C)CCNC(=O)c2cc(Oc3ccc(NC(=O)Nc4ccc(Cl)c(C(F)(F)F)c4)c(F)c3)ccn2)cc1 (stereo partly shown)    80%
COc1cccc2c1C(=O)c1c(O)c3c(c(O)c1C2=O)C[C@@](O)(C(=O)CO)C[C@@H]3O[C@H]1C[C@H](N)[C@H](O)[C@H](C)O1 [Adriamycin, reference compound]    0%
